tested on: Vaccinia virus DNA polymerase (E9) processive complex; test: vaccinia E9 polymerase processive synthesis inhibitors, primary screen, biochemical, absorbance (AID 493162); settings: in vitro processive DNA synthesis, absorbance read-out; hits give low values; concentration not given here
Among all 46,000 compounds or so, about 430 (0.93%) were called active. The entries come from a sample that favours actives as a whole.
Measured normalized absorbance, listed per entry.
Quick note: give the figure in %, leave out the unit.

Worked examples follow.
{"compound": "COc1ccc(C2C(C#N)=C(N)OC(C)=C2C(=O)OCc2ccccc2)cc1 (configuration not stated)", "result": 102}
{"compound": "CC(=O)Nc1ccc2c(c1)CN(C1CCCCC1)CO2", "result": 89}
{"compound": "CCOC(=O)CSc1nc2ccccc2n1C(=O)Oc1ccccc1", "result": 95.5}
{"compound": "Brc1ccccc1C1OCC2(CO1)COC(c1ccccc1Br)OC2 (configuration not stated)", "result": 100}
{"compound": "Cc1ccccc1NC1=NC2(CCCCC2)N=C(N)N1", "result": 100}

Ask: # query: normalized absorbance of entry COC(=O)c1ccc(Cn2nc(C)c(Cl)c2C)cc1
Result: 92.4

Ask: Tell me the measured normalized absorbance of Cc1cc2cc(CNS(=O)(=O)N(C)C)ccc2n1C , please.
Result: 101

* * *

tested on: Vaccinia virus DNA polymerase (E9) processive complex; assay: vaccinia E9 polymerase processive synthesis inhibitors, primary screen, biochemical, absorbance (AID 493162); settings: in vitro processive DNA synthesis, absorbance read-out; concentration not given here
Screen size: about 46,000 compounds; about 430 (0.93%) were called active. No stated cut-off is given here; in the data, active means normalized absorbance mostly below about 85% (no sharp cut-off); inactive means mostly above about 86%. Shown is part of a subset that was picked to be rich in actives.
# output must be one of TRUE = active, FALSE = inactive

{"compound": "Cc1ccc(C)n1-c1nn(S(C)(=O)=O)c2cccc(F)c12", "group": "FALSE"}

API: the following record is the query input.
Ask: Can you look up the reported call for Cc1cc(-c2cn(/N=C/c3ccc(Cl)cc3Cl)c(N)n2)c(C)s1 for me?
Result: FALSE

* * *

system: Vaccinia virus DNA polymerase (E9) processive complex; experiment: vaccinia E9 polymerase processive synthesis inhibitors, primary screen, biochemical, absorbance (AID 493162); conditions: in vitro processive DNA synthesis, absorbance read-out; hits give low values; concentration not given here
Hit rate of the full screen: of about 46,000 compounds, about 430 (0.93%) were called active. The list comes from a sample in which actives are over-represented; it also holds close analogues and randomly drawn compounds.
# maps each entry to its normalized absorbance
Give the value, in units of %, as a plain number.

A selection of reference data follows.
{"compound": "C=CCn1c(SCC(=O)Nc2nnc(CC)s2)nnc1-c1cccs1", "normalized absorbance (%)": 99.4}
{"compound": "CC1CCc2sc(NC(=O)Cc3ccccc3)c(C(N)=O)c2C1 (stereo not given)", "normalized absorbance (%)": 89.9}
{"compound": "CCC(=O)Oc1ccc(Br)cc1/C=C1\\Sc2ccccc2C1=O", "normalized absorbance (%)": 99.9}

Ask: Which value of normalized absorbance has been reported for O=C(N=C1SC2CS(=O)(=O)CC2N1c1ccccc1)c1ccccc1 (stereo not given) in the records?
Result: 112

Ask: I have this compound here, COCc1cc(Cl)nc(-c2ccccc2)n1 , and I need its recorded normalized absorbance.
Result: 103

* * *

Entries annotated with measured normalized absorbance
test system: Vaccinia virus DNA polymerase (E9) processive complex; assay: vaccinia E9 polymerase processive synthesis inhibitors, primary screen, biochemical, absorbance (AID 493162); settings: in vitro processive DNA synthesis, absorbance read-out; hits give low values; concentration not given here
Among all 46,000 compounds or so, about 430 (0.93%) were called active. Many of the other results were omitted from the sample, so actives are more common in it than they were.

{"compound": "CCOc1cccc(NC(=O)c2cc(=O)c3ccccc3o2)c1", "readout-kind": "normalized absorbance", "result": "100% (inactive)"}
{"compound": "CCOC(=O)c1cnc2c(C)c(C)ccc2c1NCCCN(C)C", "readout-kind": "normalized absorbance", "result": "39.1% (active)"}
{"compound": "CCOC(=O)Cc1nc(N)ncc1C(=O)OCC", "readout-kind": "normalized absorbance", "result": "101% (inactive)"}

Ask: For the compound shown here, O=C(O)CCc1cccnc1 , give the reported normalized absorbance.
Result: 102% (inactive)

Ask: I'd like to know its normalized absorbance. The compound in question is c1ccc2c(c1)[I+]c1ccccc1-2
Result: 15.1% (active)

Ask: What value of normalized absorbance has been recorded for this entry: Cc1nc2sc(C(c3ccc(F)cc3)N3CCC(O)CC3)c(O)n2n1 (stereo not drawn)
Result: 101% (inactive)

Ask: Please look up its normalized absorbance: CCOc1ccc(OCC)c(NC(=O)CCS(=O)(=O)c2ccc(C)cc2)c1
Result: 91.4% (inactive)

Ask: Tell me the measured normalized absorbance of O=C(NCc1cccnc1)c1cc(-c2ccccn2)nc2ccccc12 , please.
Result: 102% (inactive)

Ask: Recorded normalized absorbance for Cn1nnnc1SCC(=O)Nc1nccs1 , please?
Result: 104% (inactive)

Ask: Recorded normalized absorbance for CC(C)NC(=O)CN1C(=O)c2cccnc2Oc2ccccc21 , please?
Result: 102% (inactive)

Ask: Reported normalized absorbance, compound CCOC(=O)c1cc2ccccc2nc1C : ____
Result: 99.8% (inactive)

Ask: Param item = Cc1ccc(-c2nc(C)sc2CC(=O)O)cc1 ; retrieve measured normalized absorbance.
Result: 98.3% (inactive)

Ask: For the compound shown here, CCCCN1N=C(C)CC1=O , give the reported normalized absorbance.
Result: 99.9% (inactive)

This collection of values is drawn from PubChem BioAssay AID493162.
